Collected protein stability index values appear next to each entry.
B1: NECAB1 (parent)
chain: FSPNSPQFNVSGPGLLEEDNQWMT

# Variants of: B1
# test_protocol: protein stability index of a GFP-peptide fusion (GPS, HEK-293T) (PSI 1-6); higher = more stable;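 also: lentivirally expressed fusions sorted by FACS into six bins by GFP to DsRed ratio, PSI derived from sequencing read proportions per bin multiplied by bin number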
# particulars: c terminus: a fixed tail appended

| mutant_id | protein stability index |
| --- | --- |
| N9P | 3.06 |
| P6A | 2.95 |
| T24R | 2.97 |
| L15C | 3.04 |
